Values from PubChem BioAssay

Below is a list of entries, each paired with its recorded composite z-score value.
System: Lefty1
Test: Lefty1 binders on small-molecule microarrays, primary screen, biochemical, small-molecule microarray, 635/667 nm fluorescence (AID 1139)
Conditions: small-molecule microarray binding, fluorescence 635/667; higher = more signal

The following molecules have reported results that may help.
* CN(C)CCCNC(=O)[C@@]1(c2ccc([N+](=O)[O-])cc2)CC(=O)N(C2CCCCC2)[C@@H]1c1ccc(CO)cc1I | 0.0773
* O=C1OCCC/C=C\[C@H]2OC34C=CCN(Cn5nnc6ccccc65)C(=O)[C@H]3N(CCCCCCO)C(=O)[C@@H]4C12 (some centres not stated) | -0.394
* COCCOC(=O)N1C(=O)[C@@]2(c3cc(C#CCCO)ccc31)[C@H](C(=O)N1CCN(c3ncccn3)CC1)[C@H]1C(=O)O[C@H](c3ccccc3)[C@H](c3ccccc3)N1[C@@H]2c1ccccc1OCCO | 0.828

Reported composite z-score for Lefty1, given COc1ccc(C(O)C2C=CC3C(=O)N(c4ccccc4)C(=O)C3N2Nc2ccccc2F)cc1OCc1ccccc1 (configuration not stated) ?
-0.454

Reported composite z-score for Lefty1, given COc1ccc(NN2C(C(O)c3ccc([N+](=O)[O-])cc3)C=CC3C(=O)N(C4CCCCC4)C(=O)C32)cc1 (configuration not stated) ?
0.0274

Reported composite z-score for Lefty1, given O=C1C2C=CC(C(O)c3ccc(F)cc3)N(Nc3ccccc3F)C2C(=O)N1c1ccccc1 (configuration not stated) ?
-0.497

Reported composite z-score for Lefty1, given C=CCOC(=O)[C@H]1[C@@H]2C(=O)O[C@@H](c3ccccc3)[C@@H](c3ccccc3)N2[C@@H](c2ccc(OCCOC(=O)[C@@H]3C[C@@H]4C(=O)N[C@@H](CCCC[N+](C)(C)C)C(=O)N4[C@@H]3c3ccc(O)cc3)cc2)[C@]12C(=O)Nc1ccccc12 ?
1.18

---

Below is a list of entries, each paired with its recorded z-score value.
Assay: P. aeruginosa biofilm formation inhibitors, primary screen, strain PAO1, LB-PBS medium, absorbance 600 nm (AID 1176); also: test concentration not given here
Conditions: P. aeruginosa PAO1 growth/biofilm, A600, 12 h; higher = more signal
// keep it numeric: no unit symbol after the value

The following compounds have reported results that may help.
• COCCOC(=O)N1C(=O)[C@@]2(c3cc(C#CCNC(N)=O)ccc31)[C@H](C(=O)NC[C@H](O)c1ccccc1)[C@H]1C(=O)O[C@H](c3ccccc3)[C@H](c3ccccc3)N1[C@@H]2c1ccccc1OCCO = 2.62
• O=C1c2ccccc2[C@](Cc2ccccc2I)(C(=O)NC2CC2)[C@H](c2ccc(CO)cc2)N1C1CCCCC1 = 0.304

Moving on to the next compound.
Need z-score, item CC(C)N1C(=O)[C@@]2(Cc3ccccc31)c1ccccc1C(=O)N(C1CCCCC1)[C@H]2c1ccc(CO)cc1
-0.255

---

System: Fibrinogen (Alexa647-labelled)
Assay: fibrinogen binders on compound microarrays, profiling panel, artefact control for SMM control-protein annotation, biochemical, small-molecule microarray, 635/667 nm fluorescence (AID 1131);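 also: z-score merges 667 nm fluorescence with per-spot signal-to-noise over triplicate slides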
Details: fibrinogen-A647 binding fluorescence, higher = more signal
Lab note: anything with composite z-score at or over 0.9 counts as YES; the rest go in NO.

* C=CCC(OC(C)=O)[C@@H]1[C@@H](N(Cc2ccc(-c3cccc(C(F)(F)F)c3)o2)C(=O)c2ccc(-c3ccccc3)cc2)c2cc(OCCCO)ccc2N1C(=O)c1ccc(-c2ccccc2)cc1 (stereo partly specified) | NO
* CCCC=C(CCC)[C@@H](NS(=O)(=O)c1cccs1)c1ccc(C(=O)OC)cc1 | YES

Dear colleague, could you confirm whether COc1ccc([Si](C)(C)[C@H]2[C@H](CCO)O[C@@]3(C(=O)N(Cc4ccc(N5C(=O)COc6ccccc65)cc4)c4ccccc43)[C@@H]2C)cc1 has composite z-score at or above 0.9?
NO

Dear colleague, could you confirm whether COC(=O)[C@@]1(Cc2ccc(F)cc2)[C@@H]2[C@@H](CC(=O)[C@H]2CC(=O)C(=O)N(C)C)CN1C(=O)c1ccccc1 has composite z-score at or above 0.9?
YES

Dear colleague, could you confirm whether COCCOC(=O)N1C(=O)[C@@]2(c3ccccc31)[C@H](c1ccccc1OCCO)N1[C@H](c3ccccc3)[C@H](c3ccccc3)OC(=O)[C@H]1[C@@H]2C(=O)Nc1nc2ccccc2s1 has composite z-score at or above 0.9?
YES
